# ASSAY_EXPLANATION: protein stability index of a GFP-peptide fusion (GPS, HEK-293T) (PSI 1-6); higher = more stable;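 also: 24-mer peptide tiles fused after GFP, lentivirally expressed, FACS-sorted into six equal bins by GFP/DsRed ratio, decoded by Illumina sequencing, PSI is the read-weighted mean bin number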
# MEASUREMENT_PARAMETERS: treatment: DMSO; c terminus: a fixed tail appended
Quick reference: protein stability index of the listed items.
Number only, no unit.

Worked examples follow.
* AWISKIKGSPDVSASSDEPYARIQ [SMIM2] | 3.11
* AANSYDLAIKAITSSAKVDMTFEE [FKBP8] | 4.28
* PLPESRREIEELLAEAKYYLVQGL [KCTD10] | 2.56
* ENIQDITVNIHRLHVKRSMGWKKA [ZMYND11] | 2.98
* GDVCYADVYRDGTGVVEFVRKEDM [SRSF1] | 4.22

protein stability index for YLEGFDPFNQSTFNNVVEQNFKNR [DLC1] is 2.89

protein stability index for SPDDPESVKIIFKLPNDSRVERRF [FAF2] is 3.36

====

# ASSAY_EXPLANATION: protein stability index of a GFP-peptide fusion (GPS, HEK-293T) (PSI 1-6); higher = more stable
# MEASUREMENT_PARAMETERS: treatment: MLN4924 1 uM, 8 h; c terminus: a fixed tail appended
Assign 1 (yes) to entries whose protein stability index meets or exceeds 3; assign 0 (no) to the rest.

Q: Answer whether protein stability index of FLDLERPPTTPQNEEIRAVGRLKR [MFF] is greater than or equal to 3.
Result: 1 (yes)

Q: Answer whether protein stability index of PTPMPHNKGTRFSEAWEYFHLAPA [ZBED2] is greater than or equal to 3.
Result: 0 (no)

Q: Answer whether protein stability index of LPLAYQQTSAFARQPRDELERVRV [TMEM175] is greater than or equal to 3.
Result: 1 (yes)

Q: Answer whether protein stability index of MAGGKAGKDSGKAKAKAVSRSQRA [H2AZ2] is greater than or equal to 3.
Result: 1 (yes)

Q: Answer whether protein stability index of MAGTNALLMLENFIDGKFLPCSSY [ALDH8A1] is greater than or equal to 3.
Result: 0 (no)

Q: Answer whether protein stability index of HTPAGAAVSAMKCGLLPISPEALS [ADD1] is greater than or equal to 3.
Result: 1 (yes)

Q: Answer whether protein stability index of CEGPPRGKGFRDRNVTGTPLTGDK [ADAMTSL2] is greater than or equal to 3.
Result: 1 (yes)

Q: Answer whether protein stability index of VLKKQDAFYKEQLARLEERSSEFY [CHCHD3] is greater than or equal to 3.
Result: 1 (yes)

Q: Answer whether protein stability index of KHKRQMQDPQLHSPFSGSLHAPPA [VENTX] is greater than or equal to 3.
Result: 1 (yes)

Q: Answer whether protein stability index of LFEEILSNSRQLKWLSCGFMLEIV [FBXO33] is greater than or equal to 3.
Result: 0 (no)

Q: Answer whether protein stability index of YQETMVESTFMYLTLDLPTAPLYK [USP39] is greater than or equal to 3.
Result: 0 (no)

====

# ASSAY_EXPLANATION: protein stability index of a GFP-peptide fusion (GPS, HEK-293T) (PSI 1-6); higher = more stable
# MEASUREMENT_PARAMETERS: treatment: MLN4924 1 uM, 8 h; c terminus: a fixed tail appended
Assign true to entries whose protein stability index meets or exceeds 4; assign false to the rest.

Answered cases to consult:
• RARGWAAAARAAQRRRRVENAGGS [RSAD1] = true
• EEVTRLGAQVKELEEKCQQPASEL [TRIM15] = true
• LQNKVPLLGSSTACIVVLDRTSHR [PPTC7] = false
• YRGAVYADNMEFEQCIKLWLHALH [FEM1B] = false
• EDQPINLCDKLPPATALGTASYPS [NOL4L] = true

Q: Answer whether protein stability index of YYTTMQTLTKQDTMLKAMFSGRME [KCTD10] is greater than or equal to 4.
Result: false

Q: Answer whether protein stability index of FTSGTGHFTAMVWKNTKKMGVGKA [GLIPR2] is greater than or equal to 4.
Result: false

====

# ASSAY_EXPLANATION: protein stability index of a GFP-peptide fusion (GPS, HEK-293T) (PSI 1-6); higher = more stable
# MEASUREMENT_PARAMETERS: treatment: DMSO; c terminus: a fixed tail appended
MEASURED_PARAMETER: protein stability index
Number only, no unit.

• FTSGTGHFTAMVWKNTKKMGVGKA [GLIPR2] = 2.66

protein stability index for AGLLPPVPAQKFSALTFLRVDQDK [SMOC2] is 3.21

protein stability index for SQDEPIALDKQHSRDSAAITHSTY [NOL4L] is 5.01

====

Quick reference: protein stability index of the listed items.
# ASSAY_EXPLANATION: protein stability index of a GFP-peptide fusion (GPS, HEK-293T) (PSI 1-6); higher = more stable
# MEASUREMENT_PARAMETERS: treatment: DMSO; c terminus: a fixed tail appended

Worked examples follow.
- DVKTNVQLLKGRVDNISTLDSEIK [CD207]: 3.74
- PKNPALEAFLAQFSQLEDKFPGQS [TOR1AIP2]: 3.43
- FRIYKSVIQAVQKSEEGHPFKAYL [RTN3]: 2.4
- SAVSTPSPVTRTRSLSACNKRVGM [DLC1]: 4.36

protein stability index for AALAAMNGRKIMGKEVKVNWATTP [TIA1] is 2.25

protein stability index for DRNTKRDVTLEASRESSKPRAVLK [PPP2R2C] is 4.62

protein stability index for GDKNEEQVLNAIEAYTEHRPEITS [ZER1] is 5.33

protein stability index for IRPVAGYLSPRDFLSGLAFRVFHC [TPH1] is 2.1

====

# ASSAY_EXPLANATION: protein stability index of a GFP-peptide fusion (GPS, HEK-293T) (PSI 1-6); higher = more stable
# MEASUREMENT_PARAMETERS: treatment: DMSO; c terminus: a fixed tail appended
MEASURED_PARAMETER: protein stability index
Number only, no unit.

Worked examples follow.
- RRCKPKKPTRRDASPESPSKKGPI [GNAS]: 5.15
- IKDLSVVHSDLSSIVILDNSPGAY [CTDNEP1]: 2.49
- TLEQHLNTLEGKKPGNNEGSGAPS [SNAP91]: 4.81
- CAFSRTLPWSSVLRVWDMFFCEGV [TBC1D10A]: 2.85
- KNGRVDSEDRRSRHCPYLDTINRS [USP39]: 3.99

protein stability index for EVAGGGTPLLIAARYGHLDVVEYL [FEM1A] is 2.46

protein stability index for LQGAASHVPEGFDPTGPAGLGRPT [EHMT1] is 4.54

protein stability index for NSDPEVVNVDNLLAAAVVQEHSNS [C18orf25] is 5.19

protein stability index for LTLQVYREQADSCREQLDIMNDLS [TRIM14] is 2.99

protein stability index for RLNGTAKGERRREPGGYDSSSTLM [DVL3] is 3.62

protein stability index for MAGGKAGKDSGKAKAKAVSRSQRA [H2AZ2] is 4.73

protein stability index for KEEVRAALEQREQDAVDQVKVIMD [TRIM29] is 5.23

protein stability index for RNQVVSSTNGELNVDDPTGAHSNA [CSNK1G1] is 5.25

====

Quick reference: protein stability index of the listed items.
# ASSAY_EXPLANATION: protein stability index of a GFP-peptide fusion (GPS, HEK-293T) (PSI 1-6); higher = more stable
# MEASUREMENT_PARAMETERS: treatment: MLN4924 1 uM, 8 h; c terminus: a fixed tail appended
Number only, no unit.

- KCAEVIIPLLSSVNVSDRGGRTAL [ANKRD44]: 2.37

protein stability index for FTGVITQGRNSLWLSDWVTSYKVM [CPXM2] is 2.94

protein stability index for LWFYNTSLKFFLNKPMLADVVFEI [RHOBTB3] is 3.04

protein stability index for IRPVAGYLSPRDFLSGLAFRVFHC [TPH1] is 2.12

protein stability index for TSAKVNWMPPPSRADSFKVSYQLA [TNXB] is 2.69

protein stability index for HTVPDFHLSSPAKNFFKKAAAALF [PLK2] is 2.65

====

Quick reference: protein stability index of the listed items.
# ASSAY_EXPLANATION: protein stability index of a GFP-peptide fusion (GPS, HEK-293T) (PSI 1-6); higher = more stable
# MEASUREMENT_PARAMETERS: treatment: MLN4924 1 uM, 8 h; c terminus: a fixed tail appended
Number only, no unit.

* VKEISDKISKEEMVRRLKMVVKTF [PDS5B] | 2.24
* PISQEKIESERALISQCGKPVVNV [DUSP5] | 3.91

protein stability index for GGHTREARIQTLEPDNWMKEVMLF [RSAD1] is 2.34

protein stability index for QKGIPPSLRGRAWQYLSGGKVKLQ [TBC1D10A] is 3

protein stability index for TKKKGVKRPARLHTKPSQAPAVEV [NOP53] is 4.41

protein stability index for AGGATAWGDLLGEDSLAALSSVPS [SNAP91] is 3.96

protein stability index for ARSGHRCVADNTNLYVFGGYNPDY [KLHDC10] is 2.3
